Experimental system: cyclin E/CDK2 enzyme (Homo sapiens, UniProt P24941)
Construct: made in house; host or cells: Sf9 insect cells, recombinant baculovirus
Assay name: CDK2 ELISA kinase assay (phospho-Rb ser 795 detection)
Assay type: biochemical
Condition description: In Vitro Enzyme Assay, cyclin E/CDK2, read-out: CDK2 IC50
pIC50: −log10 of the molar value.
Rule: 1 for pIC50 not less than 5, 0 for anything less.

1) CN1CCCC1c1ccc(N/C=C2\C(=O)NC(=O)c3ccc(-n4cccc4)cc32)nc1 (stereo not drawn) | 0
2) O=C1NC(=O)c2ccc(-c3ccoc3)cc2/C1=C/NCc1ccc(-c2ccccc2)c(O)c1 | 0
3) CN(C)CC(=O)Nc1ccc(CN/C=C2\C(=O)NC(=O)c3ccc(I)cc32)cc1O | 1
4) CN(CCN1CCCC1)c1ccc(N/C=C2\C(=O)NC(=O)c3ccc(Br)cc32)cc1 | 0
5) CC(=O)c1ccc(-c2ccc3c(c2)C(=CNCc2ccc(O)c(O)c2)C(=O)NC3=O)cc1 | 0
6) Cc1ncsc1C=Cc1ccc2c(c1)C(=CNCc1ccc(S(N)(=O)=O)cc1)C(=O)NC2=O | 0
7) CC(C)(C)c1ccc2c(c1)/C(=C/NCc1ccc(-c3ccoc3)c(O)c1)C(=O)NC2=O | 1
8) CCCOc1cnc(CN/C=C2\C(=O)NC(=O)c3ccc(C4CCCC4)cc32)cc1O | 1
9) CC(C)CC(=O)Nc1ccc(CN/C=C2\C(=O)NC(=O)c3ccccc32)cc1 | 0
10) NS(=O)(=O)c1ccc(CNC=C2C(=O)NC(=O)c3ccc(-c4cc5ccccc5s4)cc32)cc1 | 0
11) O=C1NC(=O)c2ccccc2C1=CNCc1ccc(NS(=O)(=O)CC(F)(F)F)cc1 | 0
12) O=C1NC(=O)c2ccc(I)cc2/C1=C/Nc1ccc(CN2CCC(CCO)CC2)cc1 | 0
13) O=C1NC(=O)c2ccc(-c3cc4ccccc4s3)cc2C1=CNCc1ccc(O)c(O)c1 | 0
14) CN1CCN(c2ccc(NC=C3C(=O)NC(=O)c4ccc(-c5ccc(CO)cc5)cc43)cc2)CC1 | 0
